Target or system MAPK14 (human) (UniProt Q16539): recorded IC50 listed per item.
Answers are plain numbers, in nM.

Observe how each entry below is paired with its result.
[[record]]
compound = "Cc1ccc(C(=O)NC2CC2)cc1-n1ccnc(NCC2Cc3ccccc3CN2)c1=O (centres undefined)"
reportedresult = 126

[[record]]
compound = "CCC(CC)(Nc1nccn(-c2cc(C(=O)NC3CC3)ccc2C)c1=O)c1ccccc1OCCNC"
reportedresult = 0.398

[[record]]
compound = "Cc1ccc(C(=O)NC2CC2)cc1-n1ccnc(NCc2cccc(CNC(=O)OC(C)(C)C)c2)c1=O"
reportedresult = 31.6

[[record]]
compound = "Cc1ccc(C(=O)NC2CC2)cc1-n1ccnc(N[C@H](CC(=O)N2CCN(C)CC2)c2ccccc2)c1=O"
reportedresult = 25.1

[[record]]
compound = "Cc1ccc(C(=O)NC2CC2)cc1-n1ccnc(N[C@@H](c2ccccc2)[C@@H](C)CN2CCCN(C)CC2)c1=O"
reportedresult = 1

[[record]]
compound = "Cc1ccc(C(=O)NC2CC2)cc1-n1ccnc(NC(CC(=O)NC2CC2)c2ccccc2)c1=O (centres undefined)"
reportedresult = 31.6

[[record]]
compound = "Cc1ccc(C(=O)NC2CC2)cc1-n1ccnc(NC(c2ccccc2)C2CCN(C)CC2)c1=O (centres undefined)"
reportedresult = 251

[[record]]
compound = "CCC(C)NC(=O)c1ccc(C)c(-n2ccnc(NCc3ccc(N4CCN(C)CC4)cc3)c2=O)c1 (centres undefined)"
reportedresult = 1000


# get_value(readout= IC50, system= MAPK14 (human) (UniProt Q16539)) for "CCN(CC)CCOc1ccccc1C(C)(C)Nc1nccn(-c2cc(C(=O)NC3CC3)ccc2C)c1=O" 0.631
